System: ACHN renal
protocol_notes: NCI-60 one-dose screen, 48 h
setup_conditions: 10 µM unless noted
The panel holds about 83,000 compounds, 20% with a hit somewhere; the sample as a whole holds those more often. The source made the active and inactive calls. Rule for the calls: active = growth percent below 10; inactive = the rest.
Select the matching outcome among active, inactive

Worked examples, 10 molecules total:
[[record]]
molecule = "N#Cc1c2c(nn(-c3ccccc3)c1=O)C(O)=C([N+](=O)[O-])C(c1ccccc1)C2 (centres undefined)"
test_system = "ACHN renal"
category = "inactive"

[[record]]
molecule = "Cc1ccc(N2CCN(C(=S)c3cccs3)CC2)cc1"
test_system = "ACHN renal"
category = "inactive"

[[record]]
molecule = "CCCCCCN(CCCCCC)c1ccc(/C=C2/SC(=O)N(c3nc(N4CCCC4)nc(N4CCCC4)n3)C2=O)c(C)c1"
test_system = "ACHN renal"
category = "inactive"

[[record]]
molecule = "O=C1/C(=C\\c2c[nH]c3ccccc23)c2ccccc2N1c1c(Cl)cccc1Cl"
test_system = "ACHN renal"
category = "active"

[[record]]
molecule = "CC1(C)CC(=O)C2=C(C1)N(c1ccc(OC(F)(F)F)cc1)C(N)=C(C#N)C2c1ccc(Cl)cc1 (centres undefined)"
test_system = "ACHN renal"
category = "inactive"

[[record]]
molecule = "Clc1cccc(Cl)c1/C=C/c1cc(/C=C/c2c(Cl)cccc2Cl)[nH]n1"
test_system = "ACHN renal"
category = "inactive"

[[record]]
molecule = "COc1ccc(NC(=O)CSc2nnc(-c3cc(-c4ccc(S(N)(=O)=O)cc4)nc4ccccc34)n2-c2ccccc2)cc1"
test_system = "ACHN renal"
category = "inactive"

[[record]]
molecule = "O=C(CSc1nccc(Nc2ccc(S(=O)(=O)Nc3nccs3)cc2)n1)c1ccc(F)cc1"
test_system = "ACHN renal"
category = "inactive"

[[record]]
molecule = "COc1cccc(-c2nn(-c3ccccc3)cc2-c2ccnc(NCCNC(=O)Nc3ccc(Cl)c(Cl)c3)c2)c1"
test_system = "ACHN renal"
category = "inactive"

[[record]]
molecule = "CC/C=C1/C(=O)C=C[C@@H]1C/C=C\\CCCC(=O)O"
test_system = "ACHN renal"
category = "inactive"


INPUT: Which outcome was entered for the molecule `COc1ccc(C(=O)Nn2c(NCC(=O)N3c4ccccc4Sc4ccccc43)nnc2-c2ccc(O)cc2)cc1` in this test?
OUTPUT: inactive

INPUT: Moving on to `COc1cccc(-c2nn(-c3ccccc3)cc2-c2ccnc(NCCCNC(=O)c3ccc(F)cc3)c2)c1`
OUTPUT: inactive

INPUT: Moving on to `NC(=N\N=C/c1cccc([N+](=O)[O-])c1)/C(N)=N\N=C/c1cccc([N+](=O)[O-])c1`
OUTPUT: inactive

INPUT: Moving on to `C[C@H](NC(=O)[C@@H]1CSSC[C@@H](NC(=O)c2nc3ccccc3cc2O)C(=O)NCC(=O)N1C)c1ccccc1`
OUTPUT: inactive
